test system: UACC-62 melanoma; assay: NCI-60 one-dose screen, 48 h; settings: 10 µM unless noted
This is part of a sample that, as a whole, favours compounds with a hit. Of some 83,000 tested, about 20% had one in any assay. The source made the active and inactive calls. The calls were made as follows: active = growth percent below 10; inactive = the rest.
Entry note: the call must match one of 1 for active, 0 for inactive

# example entries with known answers
C#CCOc1ccc2ncnc(Nc3cccc(CNC(=O)C=C)c3)c2c1: 0
Cc1cc(N2CCCCCC2)nc(NC2CCCC(Nc3ccnc4cc(Cl)ccc34)C2)n1 (stereo not given): 1
COc1cc(CNc2oc(-c3ccccc3)c(-c3ccccc3)c2C#N)cc(CN2CCN(C)CC2)c1O: 0
Cc1cc(NS(=O)(=O)c2ccc(-c3cnc(C4CC4)o3)cc2)ccc1Cl: 0
CN(C)S(=O)(=O)c1cccc(-c2nc3sc4c(c3c(=O)[nH]2)CCCC4)c1: 0
Brc1ccc(-c2csc(Nc3ccccn3)n2)cc1: 0

Please find the next compound below.
# lookup: test call for `O=CNc1ccc2c(c1)Cc1cccc(NC=O)c1-2`
0

---

tested on: SNB-75 CNS; assay: NCI-60 one-dose screen, 48 h (100 = growth as untreated, 0 = no growth, -100 = all killed); conditions: 10 µM unless noted
The panel holds about 83,000 compounds, 20% with a hit somewhere; the sample as a whole holds those more often.
Each entry gets rule not met if its growth stays under 30%, and rule met if its growth is 30% or above.

Dear colleague, could you confirm whether `COC(=O)c1ccc2oc(NC(=O)c3ccc(Nc4ccc([N+](=O)[O-])cc4C)c([N+](=O)[O-])c3)nc2c1` has growth at or above 30%?
rule met

Determine whether measured growth meets or exceeds 30% for CC(=O)NCC1c2c(n(C)c3c(Cl)c(Cl)ccc23)C(=O)NC1(C)C (centres undefined)
rule met

Given the entry CC(C)C[C@@H](NC(=O)[C@@H](Cc1ccccc1)NC(=O)c1cnccn1)B1Oc2ccc(C[C@H](NC(=O)[C@H](Cc3ccc4c(c3)OB([C@@H](CC(C)C)NC(=O)[C@@H](Cc3ccccc3)NC(=O)c3cnccn3)O4)NC(=O)[C@@H](N)CC3CCC4OB([C@@H](CC(C)C)NC(=O)[C@@H](CC5CCCCC5)NC(=O)C5CNCCN5)OC4C3)C(=O)NCCCC[C@@H]3NC(=O)[C@@H](Cc4ccccc4)NC(=O)[C@H](CC(=O)O)NC(=O)CNC(=O)[C@H](CCCNC(=N)N)NC3=O)cc2O1 (some centres undefined) , answer whether its growth meets or surpasses 30%.
rule not met

---

system: RPMI-8226 leukemia; experiment: NCI-60 one-dose screen, 48 h; conditions: 10 µM unless noted
The panel holds about 83,000 compounds, 20% with a hit somewhere; the sample as a whole holds those more often. Activity calls are given as the source filed them. Rule for the calls: active = growth percent below 10; inactive = the rest.
// allowed return values: active, inactive

Worked set:
Cc1ccc(/C=C2\SC(=S)N(CC(=O)NCCCN3CCOCC3)C2=O)cc1: inactive
CCN1CCN(c2nc(NCCNc3ccnc4cc(Cl)ccc34)c3ccccc3n2)CC1: active

What is the recorded call for this compound in the test? `Nc1ccc(S(=O)(=O)O)c2ccc(N=Nc3ccc(N=Nc4ccc(S(=O)(=O)O)cc4)c4ccccc34)c(O)c12`
inactive

Give the logged outcome of this assay for the following compound: `CCOC(=O)c1sc(Nc2ccc(Cl)cc2)nc1C`
active

Hello, I am checking results. What call was entered for `CCOc1nc(-c2ccccc2)cc2c(O)c(C(=O)O)[nH]c(=O)c12` ?
inactive

// return assay outcome for `C=C(C)[C@@H]1CC[C@]2(C(=O)OC)CC[C@]3(C)[C@H](CC[C@@H]4[C@@]5(C)C/C(=C/c6cccc(I)c6)C(=O)C(C)(C)[C@@H]5CC[C@]43C)[C@@H]12`
inactive

// param item: `CN1CCN(Cc2ccc(NC(=O)c3cncc(C#Cc4cncn5ccnc45)c3)cc2C(F)(F)F)CC1` ; yields the recorded call
inactive

What classification did CC(O)CN1CC(O)=C(c2nc3ccccc3s2)C1=N (centres undefined) end up with in this test?
inactive

# fetch the recorded call for `COc1ccc(CN2c3ccccc3Oc3ccccc32)cc1O` here
inactive

---

Test system: SF-539 CNS
Assay: NCI-60 one-dose screen, 48 h (100 = growth as untreated, 0 = no growth, -100 = all killed)
Conditions: 10 µM unless noted
Experimental: Cells are grown in 96 well plates and exposed to the test compound for 48 hours. Compounds are tested at a single concentration, which is 10^-5 M for most compounds. The reported endpoint is percent growth (GI% or GIPRCNT), where numbers from 0 - 100% represent growth inhibition, and numbers from -100% - 0 represent cell death. For example, a value of 40 represents 60% growth inhibition. A value of 0 means no net growth occurred over the course of the experiment. […]
This is part of a sample that, as a whole, favours compounds with a hit. Of some 83,000 tested, about 20% had one in any assay.
TEST READOUT: growth (%)
Numbers only here, please. The scale is %.

CCC(=O)c1ccc(Cl)s1: 114
O=C1c2cc3c(cc2-c2c1c1ccc(Cl)cc1c(=O)n2CCCN1CCOCC1)OCO3: 22.7
CN1CCN(c2nc(NCCCNc3ccnc4cc(Cl)ccc34)c3ccccc3n2)CC1: -71
O=C1Nc2ccc(Br)cc2C12Oc1ccccc1C1CC(c3ccc(F)cc3)=NN12 (stereo unspecified): 91.9
CC1SC(c2ccc(N(C)C)cc2)N(NC(=O)C(O)(c2ccccc2)c2ccccc2)C1=O (stereo unspecified): 96.7
COc1ccc(/C=C\c2cc(OC)c(OC)c(OC)c2)cc1OC(=O)c1cccc(Cn2cc(CCOC(=O)[C@H](N)Cc3cn(C)c4ccccc34)nn2)c1: -13.6
c1ccc(CCNc2ncnc3[nH]ncc23)cc1: 116
N#Cc1c(N)n(CCNC(=O)c2ccccc2)c2nc3ccccc3nc12: 121

Write down measured growth (SF-539 CNS) for this compound. `CC(=O)OC[C@H]1O[C@H](OC(C)=O)[C@H](NC(=O)/C=C/CCl)[C@@H](OC(C)=O)[C@@H]1OC(C)=O`
65.6

# lookup: SF-539 CNS growth, key = `CN1CCN(CCCOc2cccc3nc(Nc4ccc(Cl)c(F)c4)ccc23)CC1`
16.9

Report the value of growth obtained on SF-539 CNS for COc1ccc(C2CC(c3ccc(Cl)cc3)=NN2/C=C2\SC(=S)N(NC(=O)Cc3ccccc3Nc3c(Cl)cccc3Cl)C2=O)cc1 (stereo unspecified) .
71.1

Would you please give the reported growth of `CCc1c(Nc2ccccc2C)nc(N)[nH]c1=O` with SF-539 CNS?
103

Please report growth with SF-539 CNS for item `COc1ccccc1NS(=O)(=O)c1ccc2oc(SC(C)C)nc2c1` .
103

Send back SF-539 CNS growth of `CCCCCC(=O)Oc1ccc(/C(=C(\C)c2ccc(OC)cc2)c2ccc(OCCN3CCCCC3)cc2)cc1` only.
40.8

// fetch growth for `CSc1ccc(-c2n[nH]nc2-c2cc3ccccc3s2)cc1` ; system: SF-539 CNS
50.2

Give growth only, for `COc1cc2nc(N3CCCC3)nc(Nc3ccccc3)c2cc1OC` , using SF-539 CNS data.
-87.4

---

The molecules listed here are annotated with their growth.
tested on: HT29 colon; assay: NCI-60 one-dose screen, 48 h (100 = growth as untreated, 0 = no growth, -100 = all killed); details: 10 µM unless noted
This is part of a sample that, as a whole, favours compounds with a hit. Of some 83,000 tested, about 20% had one in any assay.
Unit % implied. Number only.

CC(=O)O[C@H]1C(=O)[C@@]2(C)[C@H]([C@H](OC(=O)c3ccccc3)[C@]3(O)C[C@H](OC(=O)[C@H](OC(=O)CCC(=O)OC4CCC(S/N=C(N)/N=C(\N)N(C)C)CC4)[C@@H](NC(=O)c4ccccc4)c4ccccc4)C(C)=C1C3(C)C)[C@]1(OC(C)=O)CO[C@@H]1C[C@@H]2O (some centres not stated): 5
O=C(COc1ccc(-c2nc3cc(Cl)c(Cl)cc3[nH]2)cc1)N=Nc1c(O)[nH]c2ccccc12: 4.49
COc1ccc(CN2c3ccccc3Sc3ccccc32)c(C(F)(F)F)c1: 2.45
CN(C)CCN1C(=O)c2cccc3c(N)ccc(c23)C1=O: 13.5

Complete the entry with growth for Cc1cc(N2CCN(C)CC2)nc(NC2CCCC(Nc3ccnc4cc(Cl)ccc34)C2)n1 (configuration not stated)
-53.1

Find the measured growth of `CC1=CC(=NN=c2cc(C)n([O-])c(C)c2)C=C(C)[N+]1=O` and report it.
74.6

Specify growth for `O=C(O)c1c(=O)cccc2ssc12` and stop.
-48.6

Indicate the recorded growth value for this molecule: c1csc(C2=NN3C(C2)c2ccccc2OC3c2ccncc2)c1 (configuration not stated)
107

Given the molecule `CC(C)(C)CC(C)(C)c1ccc(OCCOCC[N+](C)(C)Cc2ccccc2)cc1` , write its reported growth.
-50.5

---

This section presents compounds with their documented growth values.
system: RPMI-8226 leukemia; experiment: NCI-60 one-dose screen, 48 h (100 = growth as untreated, 0 = no growth, -100 = all killed); settings: 10 µM unless noted
The panel holds about 83,000 compounds, 20% with a hit somewhere; the sample as a whole holds those more often. Calls of active or inactive are those of the source. How the source made its calls: active means growth percent below 10; inactive means the rest.

Answered examples (4):
CNC(=O)c1cc(Oc2ccc(NC(=O)Nc3ccc(Cl)c(OC(F)(F)F)c3)c(F)c2)ccn1: 13.6% (inactive)
Cc1ncc(C(=O)Nc2ccc(CN3CCN(C)CC3)c(C(F)(F)F)c2)cc1C#Cc1cnc2cccnn12: 2.24% (active)
Cc1cc(N2CCN(C)CC2)nc(NC2CCCC(Nc3ccnc4cc(Cl)ccc34)C2)n1 (stereo not drawn): -47.8% (active)
Nc1n[nH]c2ccc([C@@H]3Nc4cc5c(cc4[C@H]4C6CCC(C6)[C@@H]34)C(=O)NC5)cc12 (stereo partly drawn): 34.6% (inactive)

Please list growth recorded for the compound `CC1=NN(c2nc(-c3ccc(Cl)cc3)c(C#N)c(N3CCOCC3)n2)C(=O)C1`
57.1% (inactive)

Give growth for `CC1=C[C@H]2c3c(c(O)c(O)c4oc5ccccc5c(=O)c34)[C@H](c3cc(O)c(O)c4oc5ccccc5c(=O)c34)[C@H]2C(C)(C)C1`
15.2% (inactive)

Answer with reported growth of `CN1CCN(c2nc(NCCCNc3ccnc4cc(Cl)ccc34)c3ccccc3n2)CC1`
8.13% (active)

Kindly indicate its recorded growth. Item: CCCCCCN(CCCCCC)CCC(O)c1ccc2ccccc2c1 (stereo not drawn)
7.65% (active)

Determine from records and report growth for `COc1cccc(/C=C2\SC(=Nc3ccc(NC(C)=O)cc3)NC2=O)c1OC`
96.7% (inactive)
